method: Pharmacokinetics of intraperitoneal or intravenous injection in CD1 mice
Assay type: in vivo
experimental context: male, CD1, mouse, plasma, iv, 1 mg/kg, IV 1.0 mg/kg, CD1 mice plasma, 8 h; read-out: Conc. (ng/mL) Mouse 3
observation type: concentration at 8 h (ng/mL)
Expressed in ng/mL, but write only the number.

Query :: # input molecule: Cc1ncsc1-c1ccc(CNC(=O)[C@@H]2C[C@@H](O)CN2C(=O)[C@@H](NC(=O)CCOCCCOc2ccc(Nc3ncc(C(F)(F)F)c(NCc4cccc(N(C)S(C)(=O)=O)c4)n3)cc2)C(C)(C)C)cc1 ; wanted: its concentration at 8 h
Result :: 4.11
